The following compounds were reported with pKi values on Neuromedin-K receptor (Homo sapiens) in different studies.
Target: Neuromedin-K receptor (Homo sapiens)
Sequence (P29371 whole entry): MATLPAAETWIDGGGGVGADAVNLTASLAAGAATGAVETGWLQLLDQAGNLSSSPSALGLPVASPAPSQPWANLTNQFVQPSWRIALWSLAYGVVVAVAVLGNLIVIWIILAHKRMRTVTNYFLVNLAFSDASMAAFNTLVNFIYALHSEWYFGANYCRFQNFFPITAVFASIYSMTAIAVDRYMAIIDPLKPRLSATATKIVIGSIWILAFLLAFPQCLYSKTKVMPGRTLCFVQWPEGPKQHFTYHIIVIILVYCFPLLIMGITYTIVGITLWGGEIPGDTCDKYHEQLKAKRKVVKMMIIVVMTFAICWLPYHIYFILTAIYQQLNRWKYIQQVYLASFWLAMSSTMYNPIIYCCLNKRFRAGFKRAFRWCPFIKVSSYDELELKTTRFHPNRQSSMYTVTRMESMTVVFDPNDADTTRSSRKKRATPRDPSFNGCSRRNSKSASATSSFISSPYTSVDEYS
Scale note: pKi = -log10(concentration in M).

Query: pKi; subject: "COc1ccc(C2CCN(CC[C@H](CN(C)C(=O)c3cc(C#N)cc4ccccc34)c3ccc(Cl)c(Cl)c3)CC2)c([S@+](C)[O-])c1"
7.41

And then CSc1ccc(CN(C)C(=O)C2(c3ccc(Cl)c(Cl)c3)CC2CN2CCC(NC(C)=O)(c3ccccc3)CC2)cc1 (racemic) , what is it?
7.55

And then CC(=O)NC1(c2ccccc2)CCN(CC2CC2(C(=O)N(C)Cc2cccs2)c2ccc(Cl)c(Cl)c2)CC1 (racemic) , what is it?
7.15

And then "Cc1nc(-c2nnc3n2CCN(C(=O)c2ccc(-c4cccs4)cc2)C3)cs1" , what is it?
7.10

And then "O=C(N[C@H](C(=O)O)c1ccccc1)c1cc(-c2ccccc2)nc2ccccc12" , what is it?
5.78

And then "CC(=O)NC1(c2ccccc2)CCN(C[C@@H]2C[C@]2(C(=O)N(C)Cc2ccc(F)cc2)c2cccs2)CC1" , what is it?
7.03

And then N#CC(c1ccccn1)c1ccnc(N2CCN(C(=O)c3ccc(F)cc3)CC2)n1 (stereo not drawn) , what is it?
7.12

---

The following compounds were reported with Ki values on Neuromedin-K receptor (Homo sapiens, UniProt P29371) in different studies.
// note: answer is a bare numeric in nM

Query: Ki; subject: "CCC(CC)NC(=O)c1c(CN2CCN(C(C)C)CC2)c(-c2ccccc2)nc2ccccc12"
1210

And then "CN(C)C[C@@H](NC(=O)c1cc(-c2ccccc2)nc2ccccc12)c1ccccc1" , what is it?
1070

And then "C[C@H]1c2nnc(-c3ccccn3)n2CCN1C(=O)c1ccc(F)cc1" , what is it?
7940

And then "CC(C)N1CCN(Cc2c(-c3ccccc3)nc3ccccc3c2C(=O)N[C@@H](C)C2CCCCC2)CC1" , what is it?
1.9

And then "Cc1cccc(-c2nnc3n2CCN(C(=O)c2ccc(F)cc2)[C@@H]3C)n1" , what is it?
63.1

And then CC(=O)NC1(c2ccccc2)CCN(CC2CC2(C(=O)N(C)Cc2cccc(Cl)c2)c2ccc(Cl)c(Cl)c2)CC1 (racemic) , what is it?
24

And then "CN(Cc1ccc(F)cc1)C(=O)[C@@]1(c2ccc(Cl)c(Cl)c2)C[C@H]1CN1CC(N2CCN(S(=O)(=O)N(C)C)CC2)C1" , what is it?
1.9

And then "CN(C(=O)C(C)(C)c1cc(C(F)(F)F)cc(C(F)(F)F)c1)c1cnc(N2CCCC[C@H]2CO)cc1-c1ccccc1Cl" , what is it?
7.72
